Data origin, for the record: PubChem BioAssay AID602438

- Tgt: Neuropilin-1 (Homo sapiens) (UniProt O14786)
- Sequence (O14786 whole entry, looked up): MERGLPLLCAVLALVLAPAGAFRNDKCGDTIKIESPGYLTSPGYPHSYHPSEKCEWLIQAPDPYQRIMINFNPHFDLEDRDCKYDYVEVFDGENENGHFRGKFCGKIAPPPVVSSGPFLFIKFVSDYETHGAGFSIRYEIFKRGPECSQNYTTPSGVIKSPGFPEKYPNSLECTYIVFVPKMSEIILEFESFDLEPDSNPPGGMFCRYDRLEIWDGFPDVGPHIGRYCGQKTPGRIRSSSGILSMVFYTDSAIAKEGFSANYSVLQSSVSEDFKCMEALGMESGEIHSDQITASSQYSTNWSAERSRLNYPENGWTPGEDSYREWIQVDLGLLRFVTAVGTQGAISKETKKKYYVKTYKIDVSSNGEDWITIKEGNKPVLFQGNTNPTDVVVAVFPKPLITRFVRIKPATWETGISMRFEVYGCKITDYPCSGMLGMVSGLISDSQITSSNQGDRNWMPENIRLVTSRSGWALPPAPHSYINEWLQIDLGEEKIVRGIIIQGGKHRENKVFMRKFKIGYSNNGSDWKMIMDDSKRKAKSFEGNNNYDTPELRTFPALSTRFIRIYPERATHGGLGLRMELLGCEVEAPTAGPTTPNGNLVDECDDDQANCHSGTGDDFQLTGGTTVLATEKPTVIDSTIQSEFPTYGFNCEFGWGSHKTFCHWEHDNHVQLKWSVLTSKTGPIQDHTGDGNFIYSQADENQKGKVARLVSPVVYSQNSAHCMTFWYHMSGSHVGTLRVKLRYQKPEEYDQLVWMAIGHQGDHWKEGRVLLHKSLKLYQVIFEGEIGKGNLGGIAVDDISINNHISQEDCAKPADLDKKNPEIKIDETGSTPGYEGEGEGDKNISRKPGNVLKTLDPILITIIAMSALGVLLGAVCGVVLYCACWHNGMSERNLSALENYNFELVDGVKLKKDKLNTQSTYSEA
- Assay info: NRP-1/CendR peptide interaction modulators – biochemical, fluorescence polarization, uHTS, primary screen (AID 602438)
- Experimental conditions: FAM-RPARPAR peptide binding to NRP-1, fluorescence polarization; at 25 µM; stronger effect = higher value
Out of some 360,000 compounds screened, about 3,100 (0.86%) were called active. The entries come from a sample that favours actives as a whole.
Each entry below carries its reported inhibition.
Output spec: scalar in %, unitless text.

Cc1ccc(S(=O)(=O)N2CCN(S(=O)(=O)N3CCOCC3)CC2)cc1; 0
COc1cc2c(cc1O)C(SC)=NC(C)(C)C2; 9
COc1cc2c(cc1OC)C(C(C)C)=NC(C)(C)C2; -1.6
COc1cccc(OC)c1C(=O)N1CCN(Cc2cccnc2)CC1; 1.8
N#Cc1cccc(CN2CCC(=O)N([C@H](CO)c3ccccc3)CC2)c1; 9.5

Ask | For the compound CC(OC(=O)c1cccc(S(=O)(=O)N2CCOCC2)c1)C(=O)NCC1CCCCC1 (stereo unspecified) , give its measured inhibition value.
Reply | 8.2

Ask | Return value of inhibition for input CC(OC(=O)c1ccc([N+](=O)[O-])cc1)C(=O)NCC1CCCCC1 (stereo unspecified) , no commentary.
Reply | 23.5

Ask | Quickly give me recorded inhibition for CC1CC(C)CN(c2ccc(S(=O)(=O)N3CCOCC3)cc2)C1 (stereo unspecified)
Reply | 22.3

Ask | Indicate the recorded inhibition value for this compound: COc1ccc(NC(=O)C2C3CCC(O3)C2C(=O)O)cc1OC (stereo unspecified)
Reply | 4.9

Ask | Fill in inhibition for record `O=C(CCNC(=O)C1CCN(S(=O)(=O)c2ccccc2)CC1)NC1CC1`
Reply | -0.4

Ask | Please look at this compound and report its inhibition: `Cc1coc2c1c(C)cc1oc(=O)c(CC(=O)NCC(=O)N[C@H](C(=O)O)C(C)C)c(C)c12`
Reply | -3.3

Ask | Indicate the recorded inhibition value for this compound: `O=C1CCN(CCCc2ccccc2)CCN1CCO`
Reply | 5.5

Ask | Look up inhibition of `O=C(C/C(=N\NC(=O)c1ccccc1Br)C(F)(F)F)c1cccs1` and report it.
Reply | 0

Ask | Look up and report measured inhibition for this entry: COc1ccccc1CNC(=O)C1Cc2ccccc2C(=O)O1 (stereo unspecified)
Reply | -8.4

Ask | Answer with reported inhibition of `COc1cc2c(cc1OC)C(Nc1ccc(S(N)(=O)=O)cc1)=NC(C)(C)C2`
Reply | 26.3

Ask | # return recorded inhibition for input COc1cc(C2c3cc4c(cc3C(O)C3COC(=O)C23)OCO4)cc(OC)c1OC (stereo unspecified)
Reply | -3.6

Ask | Quick one: give measured inhibition for Cc1sc(NC(=O)C2C3CCC(O3)C2C(=O)O)c(C(=O)OC(C)C)c1-c1ccc(Cl)cc1 (stereo unspecified)
Reply | 21

Ask | Given the compound `Cc1cccc(N2CCN(C(=O)c3cnn4c(C(F)F)cc(-c5ccccc5)nc34)CC2)c1C` , write its reported inhibition.
Reply | 3.9

Ask | Check the records and state inhibition for `COCCN1C(=O)N[C@@H](CCc2ccccc2)[C@H](C(C)=O)[C@H]1C`
Reply | 23.7

Ask | For the compound `O=C(CS(=O)(=O)c1ccc(C(F)(F)F)cn1)NNC(=O)c1ccccc1` , give its reported inhibition.
Reply | -6.4

Ask | State its inhibition: Cc1cc(OC(C)C(=O)NC2CC(C)(C)NC(C)(C)C2)c2c(C)cc(=O)oc2c1 (stereo unspecified)
Reply | 1.2

Ask | Quickly give me recorded inhibition for `Cc1ccc(Cl)cc1N1CCN(C(=O)c2cccc3c(=O)c(C)c(-c4ccccc4)oc23)CC1`
Reply | 31

Ask | Look up and report measured inhibition for this entry: COc1c(O)ccc2c1CN1CCc3cc4c(cc3C1C2)OCO4 (stereo unspecified)
Reply | 30

Ask | Please indicate inhibition recorded for CC(C)Sc1nc(N)nc2c1ncn2C1OC(CO)C(O)C1O (stereo unspecified)
Reply | -1.6

Ask | # return recorded inhibition for input CC1O[C@@H](OC2C(O)C(C)O[C@H](OC(=O)[C@]34CCC(C)(C)C[C@H]3C3=CCC5[C@@]6(C)CC(O)C(O[C@@H]7OC(CO)C(O)[C@@H](O)[C@@H]7O)[C@@](C)(C(=O)O)C6CC[C@@]5(C)[C@]3(CO)CC4)C2O[C@H]2OC(C)[C@@H](O[C@@H]3OCC(O[C@@H]4OC(CO)C(O)[C@H](O)C4O)[C@@H](O)[C@@H]3O)[C@H](O)C2O)C(O)C(O)C1O (stereo partly specified)
Reply | 36.2

Ask | Return inhibition for the following compound: `CCOc1cnc(C(=O)NNC(=O)c2ccccc2Br)o1`
Reply | 6.1

Ask | Name the recorded inhibition of the item `CC1(C)CN(c2ccc(-c3ccnc4ncnn34)cc2)C1=O` in your answer.
Reply | 9.3
